Molecular target: cAMP and cAMP-inhibited cGMP 3',5'-cyclic phosphodiesterase 10A (Rattus norvegicus, UniProt Q9QYJ6)
Sequence (Q9QYJ6 whole entry): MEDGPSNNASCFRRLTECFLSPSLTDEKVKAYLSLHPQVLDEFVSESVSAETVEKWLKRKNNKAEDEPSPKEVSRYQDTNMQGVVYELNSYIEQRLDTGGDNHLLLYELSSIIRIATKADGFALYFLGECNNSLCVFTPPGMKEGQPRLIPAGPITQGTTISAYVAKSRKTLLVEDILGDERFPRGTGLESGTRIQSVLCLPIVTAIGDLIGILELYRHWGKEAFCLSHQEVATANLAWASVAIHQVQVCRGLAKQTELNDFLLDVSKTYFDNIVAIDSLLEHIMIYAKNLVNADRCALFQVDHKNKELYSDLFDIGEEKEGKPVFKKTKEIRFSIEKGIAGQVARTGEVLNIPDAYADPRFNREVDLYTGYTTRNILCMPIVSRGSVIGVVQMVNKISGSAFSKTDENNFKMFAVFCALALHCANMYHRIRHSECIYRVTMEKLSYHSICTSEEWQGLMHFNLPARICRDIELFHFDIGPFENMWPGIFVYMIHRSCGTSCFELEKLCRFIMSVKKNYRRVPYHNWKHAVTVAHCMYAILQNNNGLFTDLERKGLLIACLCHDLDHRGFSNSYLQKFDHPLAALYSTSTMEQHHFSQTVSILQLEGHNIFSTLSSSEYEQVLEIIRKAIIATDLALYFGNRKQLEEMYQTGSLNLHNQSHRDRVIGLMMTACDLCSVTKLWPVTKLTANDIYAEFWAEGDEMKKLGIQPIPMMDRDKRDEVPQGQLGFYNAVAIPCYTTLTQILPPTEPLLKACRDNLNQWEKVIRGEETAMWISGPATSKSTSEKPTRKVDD
Experiment: In Vitro Assay: Rat recombinant PDE10a (rPDE10a) was expressed in Sf9 cells using a recombinant rPDE10a baculovirus construct. Cells were harvested after 48 h of infection and the rPDE10a protein was purified by metal chelate chromatography on Ni-sepharose 6FF. Tested compounds were dissolved and diluted in 100% DMSO to a concentration 100 fold of the final concentration in the assay. Compound dilutions (0.4 uL) were added in 384 well plates to 20 uL of incubation buffer (50 mM Tris pH 7.8, 8.3 mM MgCl2, 1.7 mM EGTA). 10 uL of rPDE10a enzyme in incubation buffer was added and the reaction was started by addition of 10 uL substrate to a final concentration of 60 nM cAMP and 0.008 uCi3H-cAMP. The reaction was incubated for 60 min at rt. After incubation, the reaction was stopped with 20 uL of 17.8 mg/mL PDE SPA beads. After sedimentation of the beads during 30 min the radioactivity was measured in a Perkin Elmer Topcount scintillation counter.
Each record here notes measured IC50.

{"structure.string": "O=C(O)CN1CCC(c2c(C#Cc3ccc4ccccc4n3)nc3c(N4CCOCC4)ccnn23)CC1", "unit.descriptor": "nM", "IC50": 5}
{"structure.string": "O=C(O)c1cccc2nc(/C=C/c3nc4c(N5CCOCC5)ccnn4c3-c3ccccc3)ccc12", "unit.descriptor": "nM", "IC50": 1}
{"structure.string": "O=C(O)c1cccc2nc(/C=C/c3nc4c(N5CCOCC5)cc(Cl)nn4c3-c3cccnc3)ccc12", "unit.descriptor": "nM", "IC50": 2}
